TEST DESCRIPTION: Size and charge of LNPs by DLS (Malvern NanoZS)
Type: physicochemical
TEST PARAMETERS: mRNA(F-Luc) LNPs, total lipid 5 mM, N/P 6
METRIC: PDI

Solved entries (count: 2):
Sample CCCCCCCC/C=C\CCCCCCCCNC(=O)CCC(NC(=O)CCC(=O)NCCSSCCNC(=O)CN(C)C)C(=O)NCCCCCCCC/C=C\CCCCCCCC (stereo not shown) ; PDI observed: 0.13

Value of measured PDI for the entry CCCCCCCC/C=C\CCCCCCCC(=O)OCC(C[N+](C)(C)C)OC(=O)CCCCCCC/C=C\CCCCCCCC (stereo not shown) [DOTAP, reference compound] : 0.23

P = CCCCC/C=C\C/C=C\CCCCCCCCNC(=O)CCC(NC(=O)CCCN(C)C)C(=O)NCCCCCCCC/C=C\C/C=C\CCCCC (stereo not shown)
Q = CCCCCCCC/C=C\CCCCCCCCNC(=O)CCC(NC(=O)CN(C)C)C(=O)NCCCCCCCC/C=C\CCCCCCCC (stereo not shown)
-- ask Given P and Q , report the one with the higher recorded PDI. Answer by quoting the chosen item's label.
-- reply P
(P: 0.13, Q: 0.09)

###

TEST DESCRIPTION: Encapsulation efficiency / loaded nucleic acid by SyBr Gold fluorescence after Triton X-100 disruption
Type: physicochemical
TEST PARAMETERS: mRNA(F-Luc) LNPs, total lipid 5 mM, N/P 6
Experimental: The size and charge of the collected LNPs are determined using DLS (Malvern Instruments NanoZS) by dissolving 50 µL of the collected solution in 950 µL of MilliQ water. Then, formed LNPs are destabilized by adding 1% v/v of Triton X-100 and incubate at 30°C for 1h and vortexing. […] Fluorescence of each sample is then read after 30 min incubation at RT using a Victor (Perkin Elmer) fluorimeter (excitation: 495nm; emission: 537nm ;). […]
METRIC: Loaded RNA (ng/µL)

Entry CCCCC/C=C\C/C=C\CCCCCCCCNC(=O)CCC(NC(=O)CCCN(C)C)C(=O)NCCCCCCCC/C=C\C/C=C\CCCCC (stereo not shown) [XIV] — recorded Loaded RNA = 175

Lab note: measured Loaded RNA of CCCCCCCC/C=C\CCCCCCCCNC(=O)CCC(NC(=O)CCC(=O)NCCSSCCNC(=O)CN(C)C)C(=O)NCCCCCCCC/C=C\CCCCCCCC (stereo not shown) [VI] was 188

# compound CCCCCCCC/C=C\CCCCCCCC(=O)OCC(C[N+](C)(C)C)OC(=O)CCCCCCC/C=C\CCCCCCCC (stereo not shown) [DOTAP, reference compound] ; its Loaded RNA = 183

The reported value for CCCCCCCC/C=C\CCCCCCCCNC(=O)CCC(NC(=O)CN(C)C)C(=O)NCCCCCCCC/C=C\CCCCCCCC (stereo not shown) [I] in terms of Loaded RNA is 195

###

TEST DESCRIPTION: Size and charge of LNPs by DLS (Malvern NanoZS)
Type: physicochemical
TEST PARAMETERS: mRNA(GFP) LNPs, total lipid 3.75 mM, N/P 6
METRIC: Zeta (mV)

A = CCCCCCCC/C=C\CCCCCCCCNC(=O)CCC(NC(=O)CN(C)C)C(=O)NCCCCCCCC/C=C\CCCCCCCC (stereo not shown)
B = CCCCCCC/C=C\CCCCCCCCNC(=O)CCC(NC(=O)CCCN(C)C)C(=O)NCCCCCCCC/C=C\CCCCCCCC (stereo not shown)
-- ask Could you kindly indicate whether A or B has the higher Zeta value? Write down the label of the entry you select.
-- reply B
